tested on: L1210 leukemia ip in BDF1 mice, survival T/C; assay: NCI In Vivo Anticancer Drug Screen. Data for tumor model L1210 Leukemia (intraperitoneal) in B6D2F1 (BDF1) mice; settings: endpoint: mean survival time; dose: 50.0 mg/kg/injection; schedule: Q01DX009 (ip); vehicle: Klucel (hydroxypropylcellulose) (HPC); higher = longer survival
Inconclusive results and toxic doses are left out. Square brackets hold non-standard residues; d marks the D form. Peptide text beside a SMILES is read from it. * marks the point of attachment. Cbz = O=C(OCc1ccccc1)*; Sar = CNCC(=O)O
ASSAY_READOUT: T/C

Reference set, count: 4
COMPOUND | MEASURED_RESULT
Oc1ccc2ccccc2c1/C=C/c1ccncc1 | 89 % of control
COc1ccc2ccccc2c1C1NC(=O)c2ccccc2N1 (stereo not given) | 97 % of control
CCCCCCCCCCC(=O)CCC | 92 % of control
NC(Cc1ccccc1Cl)C(=O)O (stereo not given) | 102 % of control

Suppose we examine the compound CCCCNC(=O)Nc1ccc(O)c(C(=O)O)c1 ; what T/C value has been reported?
93 % of control

And then CN(CC(=O)O)C(=O)CNC(=O)OCc1ccccc1 (Cbz-Gly-[Sar]-OH) , what is it?
105 % of control

Also check Cc1cc(C)c(-c2c(C)cc(C)c(N)c2C)c(C)c1N
103 % of control

Item: C[C@H]1C[C@@H]2[C@H]([C@@H](O)C[C@@]3(C)[C@H]2CC[C@]3(O)C(=O)CO)[C@@]2(C)C=CC(=O)C=C12
98 % of control

Same for CC(=O)C(=Cc1ccccc1)C(C)=O
97 % of control

// query: O=C1c2ccccc2-c2ccc(Br)c3cccc1c23
93 % of control
